# Assayed System: human nAChRα6-α3 chimera, in addition to β2 and β3^V273S subunits (Homo sapiens, UniProt P32297+Q15825)
# Construct: expressed in transfected cells
# Sequence (Q05901 25-458 V273S): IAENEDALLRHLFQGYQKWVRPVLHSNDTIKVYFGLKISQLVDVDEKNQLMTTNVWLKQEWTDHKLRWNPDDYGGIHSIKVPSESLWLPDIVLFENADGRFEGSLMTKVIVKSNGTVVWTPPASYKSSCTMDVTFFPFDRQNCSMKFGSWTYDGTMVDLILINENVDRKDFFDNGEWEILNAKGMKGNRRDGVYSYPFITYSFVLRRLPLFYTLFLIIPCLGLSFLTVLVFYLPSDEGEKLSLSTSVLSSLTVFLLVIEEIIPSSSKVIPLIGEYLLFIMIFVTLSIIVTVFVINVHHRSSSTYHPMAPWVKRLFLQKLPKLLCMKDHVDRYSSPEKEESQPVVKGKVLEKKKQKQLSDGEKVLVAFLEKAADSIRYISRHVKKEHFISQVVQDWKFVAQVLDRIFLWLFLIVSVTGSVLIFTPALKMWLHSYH
# Sequence (P17787 26-502, stated change not applied, further chain): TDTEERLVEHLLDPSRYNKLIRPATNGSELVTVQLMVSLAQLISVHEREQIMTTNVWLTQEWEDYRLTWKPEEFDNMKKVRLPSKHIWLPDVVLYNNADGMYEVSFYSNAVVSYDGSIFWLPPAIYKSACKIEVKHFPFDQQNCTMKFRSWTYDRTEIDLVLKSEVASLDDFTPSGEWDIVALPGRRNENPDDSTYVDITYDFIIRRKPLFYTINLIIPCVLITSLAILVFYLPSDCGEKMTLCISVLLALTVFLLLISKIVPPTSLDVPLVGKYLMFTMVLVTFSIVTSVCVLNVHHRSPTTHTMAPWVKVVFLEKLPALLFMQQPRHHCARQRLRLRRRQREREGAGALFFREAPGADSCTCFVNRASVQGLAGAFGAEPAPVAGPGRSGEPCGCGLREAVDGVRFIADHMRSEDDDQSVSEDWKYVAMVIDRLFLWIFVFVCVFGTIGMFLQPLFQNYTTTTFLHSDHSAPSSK
# Sequence (Q15825+P32297 fused with the stated changes): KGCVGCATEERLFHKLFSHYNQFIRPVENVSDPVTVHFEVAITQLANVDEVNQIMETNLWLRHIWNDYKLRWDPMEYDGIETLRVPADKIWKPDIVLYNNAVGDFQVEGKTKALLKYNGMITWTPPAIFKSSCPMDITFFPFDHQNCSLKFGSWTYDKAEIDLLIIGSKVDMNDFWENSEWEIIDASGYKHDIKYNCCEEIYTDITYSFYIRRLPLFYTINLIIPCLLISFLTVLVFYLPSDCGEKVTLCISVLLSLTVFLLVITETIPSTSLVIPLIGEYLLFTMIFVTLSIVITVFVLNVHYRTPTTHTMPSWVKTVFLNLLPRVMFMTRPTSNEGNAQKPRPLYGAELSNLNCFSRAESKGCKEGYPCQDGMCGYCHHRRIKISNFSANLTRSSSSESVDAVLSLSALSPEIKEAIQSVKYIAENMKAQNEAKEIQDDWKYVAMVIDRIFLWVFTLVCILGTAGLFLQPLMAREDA
# Assay Name: fluorescence-based calcium assay: inhibition of nicotine stimulated nAChRα6 activity (FLIPR)
# Cond: HEK cell line stably expressing the receptor; 10 min pre-incubation, nicotine EC80; 10-point curve, duplicate wells; read-out: IC50
Metric Name: IC50 (nM)
# output: bare number, implied unit nM

Sure, the documented IC50 for Cc1nc(NCC2CCCN2C)nnc1-c1ccc(F)cc1F (stereo not drawn) [Example 15] is 1940

Sure, the documented IC50 for COc1ccc(-c2nnc(NCCC3CCCN3C)nc2C)c(F)c1 (stereo not drawn) [Example 23] is 233

Sure, the documented IC50 for Cc1nc(N[C@H]2CCC[C@H](N)C2)ncc1-c1ccc(C(F)(F)F)cc1F [Example 125] is 223

----------
# Assayed System: human nAChRα6-α3 chimera, in addition to β2 and β3^V273S subunits (Homo sapiens, UniProt P32297+Q15825)
# Construct: expressed in transfected cells
# Assay Name: fluorescence-based calcium assay: inhibition of nicotine stimulated nAChRα6 activity (FLIPR)
# Cond: HEK cell line stably expressing the receptor; 10 min pre-incubation, nicotine EC80; 10-point curve, duplicate wells; read-out: IC50
pIC50: −log10 of the molar value.
Everything with pIC50 lower than 7 is no (0); everything else, including exactly 7, is yes (1).

Check the entry Cc1nc(NCC2COCCN2C)ncc1-c1ccc(F)cc1F (single isomer, unassigned) [Example 79a] : does pIC50 equal or exceed 7?
no (0)

Check the entry Cc1nc(NC[C@H]2CCCN2CC(F)(F)F)ncc1-c1ccc(F)cc1F [Example 95a] : does pIC50 equal or exceed 7?
yes (1)

Check the entry Cc1nc(NCC2CCC(C)N2C)ncc1-c1ccc(C(F)(F)F)cc1F (single isomer, unassigned) [Example 138d] : does pIC50 equal or exceed 7?
yes (1)

Check the entry Cc1nc(NCC2CN(C)CCO2)ncc1-c1ccc(C(F)(F)F)cc1F (stereo not shown) : does pIC50 equal or exceed 7?
yes (1)

Check the entry Cc1nc(NC2CCN(C)CC2)ncc1-c1ccc(F)cc1F : does pIC50 equal or exceed 7?
yes (1)

Check the entry Cc1nc(NCC2NCCC2(F)F)ncc1-c1ccc(F)cc1F (single isomer, unassigned) [Example 83b] : does pIC50 equal or exceed 7?
no (0)

Check the entry Cc1nc(NCC2CCC(C)N2C)ncc1-c1ccc(C(F)(F)F)cc1F (single isomer, unassigned) [Example 138a] : does pIC50 equal or exceed 7?
no (0)

----------
# Assayed System: human nAChRα6-α3 chimera, in addition to β2 and β3^V273S subunits (Homo sapiens, UniProt P32297+Q15825)
# Construct: expressed in transfected cells
# Assay Name: fluorescence-based calcium assay: inhibition of nicotine stimulated nAChRα6 activity (FLIPR)
# Cond: HEK cell line stably expressing the receptor; 10 min pre-incubation, nicotine EC80; 10-point curve, duplicate wells; read-out: IC50
Metric Name: pIC50
Entry type: numeric. Quantity: pIC50, the -log10 of concentration in molar units.

Sure, the documented pIC50 for COc1ccc(-c2nnc(NC3CCCN(C(C)C)C3)nc2C)c(F)c1 (single isomer, unassigned) [Example 76a] is 6.93

Sure, the documented pIC50 for Cc1nc(NC2CCN3CCCC23)ncc1-c1ccc(F)cc1F (single isomer, unassigned) [Example 86b] is 6.90

Sure, the documented pIC50 for Cc1nc(NC2CCN(C(C)C)CC2)ncc1-c1ccc(F)cc1F is 7.18

Sure, the documented pIC50 for COc1ccc(-c2cnc(NC3CCN(C(C)C)CC3)nc2C)c(F)c1 is 7.09

Sure, the documented pIC50 for COc1ccc(-c2cnc(NC3CCN(C(C)C)CC3)nc2C#N)c(F)c1 is 7.01

Sure, the documented pIC50 for Cc1nc(NC[C@@]2(C)CCCN2)ncc1-c1ccc(C(F)(F)F)cc1F is 7.15

Sure, the documented pIC50 for Cc1nc(NC2CC23CCNCC3)ncc1-c1ccc(C(F)(F)F)cc1F (stereo not drawn) is 6.82

Sure, the documented pIC50 for Cc1nc(N[C@H]2CCN(C(C)C)C2)ncc1-c1ccc(C(F)(F)F)cc1F is 6.96

Sure, the documented pIC50 for COc1ccc(-c2cnc(NC3CCN(C)CC3)nc2C)c(F)c1 is 7.17

Sure, the documented pIC50 for Cc1nc(NCC2CCC(C)N2C)ncc1-c1ccc(C(F)(F)F)cc1F (single isomer, unassigned) [Example 138b] is 7.07

Sure, the documented pIC50 for Cc1nc(NCC2C(F)CCN2C)ncc1-c1ccc(F)cc1F (single isomer, unassigned) [Example 96a] is 6.82

Sure, the documented pIC50 for Cc1nc(N[C@H]2CNC[C@@H]2F)ncc1-c1ccc(C(F)(F)F)cc1F (relative stereo) is 6.85

Sure, the documented pIC50 for Cc1nc(NC2CCN3CCCC23)ncc1-c1ccc(F)cc1F (single isomer, unassigned) [Example 86a] is 6.91

Sure, the documented pIC50 for COc1ccc(-c2cnc(NC3CCC(N(C)C)C3)nc2C#N)c(F)c1 (single isomer, unassigned) [Example 38b] is 7.15

Sure, the documented pIC50 for COc1ccc(-c2cnc(NCC3CCCN(C)C3)nc2C)c(F)c1 (stereo not drawn) is 7.09

Where do these numbers come from? They come from patent US20240059677A1.
